B1: Syntaxin-binding protein 4, residues 493 to 538; numbered along this chain, Q6ZWJ1 (parent)
chain: LDMDCLPYGWEEAYTADGIKYFINHVTQTTSWIHPVMSVLNLSRSE

# Variants of: B1
# assay_summary: abundance fitness (aPCA) (normalised: wild type 0, dead -1); higher = more abundant; growth selection in yeast, the domain comes from the species named
# measurement_context: Homo sapiens
measurement_type: abundance fitness

Take a look at these entries with their results.
E12Y -0.794
M3G -0.084
S31H -0.94
S45R -0.173

What measured abundance fitness goes with "F22V" ?
-0.904

# iterate: "I23C"
-0.892

# iterate: "E11V"
-0.531

# iterate: "P7R"
-0.782

# iterate: "M37Y"
-0.374

# iterate: "D17Y"
-0.881

# iterate: "G9L"
-0.636

# iterate: "D2F"
-0.849

# iterate: "E46G"
0.23

# iterate: "V26M"
-0.29

# iterate: "I19S"
0.634

# iterate: "I33F"
-0.549

# iterate: "I19K"
0.791

# iterate: "T29V"
0.766

# iterate: "W10Y"
-0.774

# iterate: "M37F"
-0.292
